Reported OD450 values for a set of binders
TARGET ENTITY: T1, human MSLN-FL-his protein (human, UniProt Q13421 296-580)
T1 construct: Made in HEK293E cells, purified on nickel column; also called hMSLN-FL-his; human MSLN full-length protein; not shown: His tag
T1 sequence (Q13421 other isoform, or with tags, fused parts or gaps): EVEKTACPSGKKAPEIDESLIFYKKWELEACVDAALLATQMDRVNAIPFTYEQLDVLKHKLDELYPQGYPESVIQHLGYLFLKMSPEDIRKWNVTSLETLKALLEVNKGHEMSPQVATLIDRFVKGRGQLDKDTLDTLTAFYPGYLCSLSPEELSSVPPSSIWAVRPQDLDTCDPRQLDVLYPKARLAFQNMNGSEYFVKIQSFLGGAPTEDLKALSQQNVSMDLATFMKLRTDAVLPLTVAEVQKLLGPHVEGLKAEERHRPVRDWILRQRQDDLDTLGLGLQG
ASSAY NOTES: ELISA, coated antigen, antibody 2 nM
Give only the figure.

Check out these entries, answers already filled in.
BINDER	ATTRIBUTE MEASURED	RESULT NUMBER
S009-F7.12.13 chimeric antibody (antibody, human IgG1, kappa, V domains shown, Human-murine chimeric antibody, human IgG1/kappa constant regions) VH: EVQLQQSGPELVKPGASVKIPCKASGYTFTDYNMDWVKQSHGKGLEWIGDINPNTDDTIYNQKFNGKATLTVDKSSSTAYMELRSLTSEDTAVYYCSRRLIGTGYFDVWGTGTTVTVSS VL: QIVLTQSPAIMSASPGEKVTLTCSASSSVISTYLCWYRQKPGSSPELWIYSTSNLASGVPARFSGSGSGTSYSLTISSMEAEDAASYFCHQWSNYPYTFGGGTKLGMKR	OD450	2.21
S009-F7.21.16 chimeric antibody (antibody, human IgG1, kappa, V domains shown, Human-murine chimeric antibody, human IgG1/kappa constant regions) VH: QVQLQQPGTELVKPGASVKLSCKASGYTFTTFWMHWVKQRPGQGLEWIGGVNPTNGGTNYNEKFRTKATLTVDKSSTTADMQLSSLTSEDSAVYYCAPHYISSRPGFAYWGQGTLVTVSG VL: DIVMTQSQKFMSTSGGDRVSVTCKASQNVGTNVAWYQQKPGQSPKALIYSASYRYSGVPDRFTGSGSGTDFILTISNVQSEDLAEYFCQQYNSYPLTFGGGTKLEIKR	OD450	2.31
S009-F7.33.24 chimeric antibody (antibody, human IgG1, kappa, V domains shown, Human-murine chimeric antibody, human IgG1/kappa constant regions) VH: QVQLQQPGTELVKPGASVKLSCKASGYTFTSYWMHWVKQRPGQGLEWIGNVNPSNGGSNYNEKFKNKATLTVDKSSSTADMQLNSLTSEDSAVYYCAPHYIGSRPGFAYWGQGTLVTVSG VL: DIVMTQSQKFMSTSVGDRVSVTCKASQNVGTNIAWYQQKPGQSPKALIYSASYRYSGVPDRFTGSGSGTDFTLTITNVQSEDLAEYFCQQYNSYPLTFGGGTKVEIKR	OD450	2.54
S009-F7.67.12 chimeric antibody (antibody, human IgG1, kappa, V domains shown, Human-murine chimeric antibody, human IgG1/kappa constant regions) VH: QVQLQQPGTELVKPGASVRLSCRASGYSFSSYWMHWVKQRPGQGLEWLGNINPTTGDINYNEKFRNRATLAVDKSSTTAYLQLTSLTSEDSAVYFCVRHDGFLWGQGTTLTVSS VL: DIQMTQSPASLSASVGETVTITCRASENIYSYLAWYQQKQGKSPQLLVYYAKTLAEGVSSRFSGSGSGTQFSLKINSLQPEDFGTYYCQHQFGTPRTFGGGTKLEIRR	OD450	2.07
S009-F7.2.3 chimeric antibody (antibody, human IgG1, kappa, V domains shown, Human-murine chimeric antibody, human IgG1/kappa constant regions) VH: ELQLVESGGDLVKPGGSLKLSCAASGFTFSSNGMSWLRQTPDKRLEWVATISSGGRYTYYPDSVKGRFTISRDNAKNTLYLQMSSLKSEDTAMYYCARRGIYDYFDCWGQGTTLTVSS VL: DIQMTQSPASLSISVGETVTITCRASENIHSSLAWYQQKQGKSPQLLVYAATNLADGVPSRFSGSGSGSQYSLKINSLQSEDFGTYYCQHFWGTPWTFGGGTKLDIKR	OD450	2.5

Data request: Annotate the binder S009-F7.48.1 chimeric antibody (antibody, human IgG1, kappa, V domains shown, Human-murine chimeric antibody, human IgG1/kappa constant regions) VH: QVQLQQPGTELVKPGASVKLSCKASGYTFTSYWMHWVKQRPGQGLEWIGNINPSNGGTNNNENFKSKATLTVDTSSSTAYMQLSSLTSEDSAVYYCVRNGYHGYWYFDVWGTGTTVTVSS VL: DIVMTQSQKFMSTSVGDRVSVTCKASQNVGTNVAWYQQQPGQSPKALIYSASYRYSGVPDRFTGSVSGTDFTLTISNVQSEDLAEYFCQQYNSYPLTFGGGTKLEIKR with its measured OD450.
Data returned: 2.12

Data request: Return reported OD450. Input binder: S009-F7.25.19 chimeric antibody (antibody, human IgG1, kappa, V domains shown, Human-murine chimeric antibody, human IgG1/kappa constant regions) VH: QVQLQQPGTELVKPGASVKLSCKASGYTFTSYWMHWVKQRPGQGLEWIGNIIPSNGGTKYNEKFKSKATLTVDKSSSTAYMQLSSLTSEDSAVYYCSPHYYGGSPGFAYWGQGTLITVSA VL: DIVMTQSQKFMSTSVGDRVSVICKASQNVGTNVAWYQQKPGQSPKALIYSASYRYSGVPDRFTGSGSGTDFTLTISNVQSEDLAEYFCQQYNSYPLTFGGGTKLEIKR
Data returned: 2.39

Data request: # return recorded OD450 for input S009-F7.6.17 chimeric antibody (antibody, human IgG1, kappa, V domains shown, Human-murine chimeric antibody, human IgG1/kappa constant regions) VH: QVQLQQSGAELARPGASVKMSCKASGYTFTTYTMHWVKQRPGQGLEWIGYISPTGDFTKYNQKFKDKATLTTDKSSNTAFMQLSSLTSEDSAVYYCARWNGTVWFAYWGQGTLVTVSA VL: DIVMTQSQKFMSTSVGDRVTVTCKASQALGTNVAWYQQKPGQSPKVLIYSASYRYSGVPYRFAGGGSGTDFTLTITNVQSEDLAEYFCQQYNNYPLTFGAGTKLELKR
Data returned: 2.34

Cited source: patent US20250250357A1
